Just for reference, patent US20190330275A1 is where these values come from.

target: rat α6/α3β4 nAChR (Rattus norvegicus, UniProt P04757+P12392+P43143); test: cell-based; settings: α6/α3β4 IC50
Sequence (P04757 whole entry, looked up): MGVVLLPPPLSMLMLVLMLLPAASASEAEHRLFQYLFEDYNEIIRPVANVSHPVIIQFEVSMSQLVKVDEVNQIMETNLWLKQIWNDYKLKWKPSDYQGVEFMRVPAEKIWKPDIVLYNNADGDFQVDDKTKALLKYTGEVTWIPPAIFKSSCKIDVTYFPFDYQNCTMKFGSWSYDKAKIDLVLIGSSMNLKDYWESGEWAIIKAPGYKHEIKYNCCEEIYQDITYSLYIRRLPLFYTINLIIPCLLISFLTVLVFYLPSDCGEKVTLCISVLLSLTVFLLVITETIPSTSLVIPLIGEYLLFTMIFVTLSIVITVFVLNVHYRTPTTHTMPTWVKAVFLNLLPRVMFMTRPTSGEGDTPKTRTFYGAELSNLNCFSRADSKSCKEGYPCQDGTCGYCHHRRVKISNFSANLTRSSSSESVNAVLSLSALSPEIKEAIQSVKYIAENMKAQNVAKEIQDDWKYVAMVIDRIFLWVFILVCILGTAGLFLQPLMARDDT
Sequence (P12392 whole entry, looked up): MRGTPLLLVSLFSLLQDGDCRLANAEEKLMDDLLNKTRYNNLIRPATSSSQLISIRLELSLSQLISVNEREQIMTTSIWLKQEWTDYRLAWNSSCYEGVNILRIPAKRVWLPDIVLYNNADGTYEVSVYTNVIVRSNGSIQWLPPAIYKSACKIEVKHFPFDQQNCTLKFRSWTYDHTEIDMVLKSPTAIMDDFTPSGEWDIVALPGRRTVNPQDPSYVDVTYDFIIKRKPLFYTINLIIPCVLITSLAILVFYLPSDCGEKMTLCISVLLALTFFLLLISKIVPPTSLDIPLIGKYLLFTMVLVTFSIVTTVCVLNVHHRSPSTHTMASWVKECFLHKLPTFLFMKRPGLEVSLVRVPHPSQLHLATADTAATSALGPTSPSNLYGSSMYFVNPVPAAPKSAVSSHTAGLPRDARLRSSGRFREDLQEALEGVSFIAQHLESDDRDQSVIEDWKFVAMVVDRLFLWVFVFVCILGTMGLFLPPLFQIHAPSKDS
Sequence (P43143 whole entry, looked up): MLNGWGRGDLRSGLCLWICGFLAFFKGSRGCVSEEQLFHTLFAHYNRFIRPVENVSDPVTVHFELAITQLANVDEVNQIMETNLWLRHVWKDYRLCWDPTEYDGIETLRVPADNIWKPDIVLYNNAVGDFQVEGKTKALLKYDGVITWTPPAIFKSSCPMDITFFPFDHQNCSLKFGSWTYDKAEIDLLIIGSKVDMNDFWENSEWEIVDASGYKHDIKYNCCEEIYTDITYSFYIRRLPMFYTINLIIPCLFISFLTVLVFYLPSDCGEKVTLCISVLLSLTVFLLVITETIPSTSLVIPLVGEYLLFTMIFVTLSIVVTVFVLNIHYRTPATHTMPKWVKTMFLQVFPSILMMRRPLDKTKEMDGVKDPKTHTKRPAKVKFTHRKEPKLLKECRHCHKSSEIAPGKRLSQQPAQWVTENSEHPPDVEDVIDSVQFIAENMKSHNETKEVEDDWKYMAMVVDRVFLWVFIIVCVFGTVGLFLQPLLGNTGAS
Peptide text beside a SMILES is read from it.
Measure name: pIC50
Entry type: numeric. Quantity: pIC50, the -log10 of concentration in molar units.

Dear colleague, I am looking for the recorded pIC50 of the following compound: CC[C@H](C)[C@@H]1NC(=O)[C@@H]2CCCN2C(=O)[C@H](CO)NC(=O)[C@H](CCSC)NC(=O)[C@H](C)NC(=O)[C@H](Cc2ccccc2)NC(=O)[C@@H]2CSSC[C@H](NC(=O)CN)C(=O)N[C@@H](CSSC[C@@H](C(N)=O)NC1=O)C(=O)N[C@@H](CO)C(=O)N[C@@H](Cc1cnc[nH]1)C(=O)N1CCC[C@H]1C(=O)N[C@@H](C(C)C)C(=O)N2 [TxID[S9F]] (HELM PEPTIDE1{G.C.C.S.H.P.V.C.F.A.M.S.P.I.C.[am]}$PEPTIDE1,PEPTIDE1,2:R3-8:R3|PEPTIDE1,PEPTIDE1,3:R3-15:R3$$$V2.0)
7.99
